All figures here come from PubChem BioAssay AID1159580.

assay: chemical genetic growth profiling, strain panel (AID 1159580);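 also: tested at 20 µM; growth read once vehicle control cultures reached saturation at 30 °C; 1 = growth at the plate median or of vehicle wells; lower values mean less growth of the strain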; conditions: S. cerevisiae deletion strains, growth OD, locus YCL069W, strain vba3, active compounds read low
The campaign covered roughly 5,500 compounds. About 2,000 (36%) were called active. Roughly 18% stayed inconclusive and do not appear here. The list shows a part of the results.
This section presents compounds with their documented normalized growth values.
PROPERTY MEASURED: normalized growth

COMPOUND	READING
CC(C)=CCCC1(C)C=Cc2c(O)c3c(c(CC=C(C)C)c2O1)OC12C(=CC4CC1C(C)(C)OC2(C/C=C(/C)C(=O)O)C4=O)C3=O (stereo not drawn)	0.945
CCCOc1ccccc1-c1nc2n[nH]nc2c(=O)[nH]1	0.992
COc1cccc2c1C(=O)c1c(O)c3c(c(O)c1C2=O)C[C@@](O)(C(=O)CO)C[C@@H]3OC1C[C@H](N)[C@H](O)[C@H](C)O1 (stereo partly drawn)	0.718
COc1cccc2c1C(=O)c1c(O)c3c(c(O)c1C2=O)C[C@@](O)(C(C)=O)C[C@@H]3O[C@H]1C[C@H](N)[C@H](O)[C@H](C)O1	0.966
O=C(CNC(=O)c1ccc(Cl)cc1)NO	1.01
COC(=O)C[C@H]1C(C)(C)C(=O)[C@@H]2CC3C4=CC(=O)O[C@@H](c5ccoc5)[C@]4(C)CCC3[C@@]1(C)C2=O (stereo partly drawn)	0.99
Nc1ccccc1C(=O)CC(N)C(=O)O (stereo not drawn)	1.01
C#C[C@]1(OC(C)=O)CCC2C3CCC4=C/C(=N\O)CCC4C3CC[C@@]21CC (stereo partly drawn)	0.984
